experiment: Validation screen for small molecules that induce DNA re-replication in MCF 10A normal breast cells (AID 463097); conditions: MCF 10A cells, DNA re-replication phenotype imaging; series mostly up to 46.1 µM; also: nearly all actives have a fitted effect of over 60% in size; also: potency is read from the fitted curve at half-maximal effect
Results filed as inconclusive are left out. The source made the active and inactive calls. Calls follow the shape of the dose curve; as a rule, active = well fitted activation curve with a large enough effect; inconclusive = small, poorly fitted or top-dose-only effect; inactive = flat fitted curve, though single readings scatter.
readout name: Potency

> print(dat)
                            chemical.string    observed.value
1  O=[N+]([O-])c1ccc(-c2nc(-c3ccc(F)cc3)c(-c3ccncc3)[nH]2)cc1  12.6 µM (active)
2  O=C1NC(c2cccc([N+](=O)[O-])c2)=CCN1c1ccccc1O          inactive
3  CN(C)c1cc2c(Nc3ccc4c(cnn4Cc4ccccc4)c3)ncnc2cn1  3.16 µM (active)
4                            C[N+](C)(C)CCO          inactive
5                        NC(N)=NCCCCN=C(N)N          inactive
6  C[C@]12CCC(=O)C=C1CC[C@@H]1[C@@H]2[C@@H](O)C[C@@]2(C)[C@H]1CC[C@]2(O)C(=O)COC(=O)CCC(=O)O          inactive

Now take the following compound into account.
Exam item: Identify Potency associated with the compound Brc1ccc([C@H]2CN3CCSC3=N2)cc1
Marked response: 7.08 µM (active)

Where do the numbers come from? From PubChem BioAssay (NCATS).
